System: Staphylococcus aureus
Protocol details: Antibacterial activity against Staphylococcus aureus 011HT3
Type: functional
Field: MIC. Provide a value for each of the compounds that follow.
Field format: number, assumed µg/mL, no unit text.

Ask | // query MIC value for entry CC#CCONC(=O)O[C@H]1[C@@H](O)[C@H](Oc2ccc3c(=O)c(C(=O)OCC)c(O)oc3c2C)OC(C)(C)[C@@H]1OC
Reply | 10

Ask | // query MIC value for entry C#CCONC(=O)O[C@H]1[C@@H](O)[C@H](Oc2ccc3c(=O)c(/C(C)=N/OCC)c(O)oc3c2C)OC(C)(C)[C@@H]1OC
Reply | 0.08

###

System: Escherichia coli
Protocol details: In vitro activity against Escherichia coli DNA gyrase subunit B supercoiling, expressed as IC50 novobiocin / IC50 compound
Assay type: functional
Quantity measured: Ratio
Give your answer as a number; write no unit.

Ask | // query Ratio value for entry CCOC(=O)c1c(O)oc2c(C)c(O[C@@H]3OC(C)(C)[C@H](OC)[C@@H](OC(=O)NOC)[C@H]3O)ccc2c1=O
Reply | 0.66

Ask | // query Ratio value for entry C#CCONC(=O)O[C@H]1[C@@H](O)[C@H](Oc2ccc3c(O)c(C(N)=O)c(=O)oc3c2C)OC(C)(C)[C@@H]1OC
Reply | 1

Ask | // query Ratio value for entry CO[C@@H]1[C@@H](OC(=O)c2ccc(C)[nH]2)[C@@H](O)[C@H](Oc2ccc3c(O)c(C(C)=O)c(=O)oc3c2C)OC1(C)C
Reply | 2

Ask | // query Ratio value for entry C=CCNC(=O)O[C@H]1[C@@H](O)[C@H](Oc2ccc3c(=O)c(C(=O)OCC)c(O)oc3c2C)OC(C)(C)[C@@H]1OC
Reply | 0.38
